molecules and their reported IC50
biological target: ALDH1B1 (Homo sapiens, UniProt P30837); construct: purified ALDH1B1 protein, wild type and alanine mutants; assay: in vitro enzyme activity assay
Sequence (P30837 18-517): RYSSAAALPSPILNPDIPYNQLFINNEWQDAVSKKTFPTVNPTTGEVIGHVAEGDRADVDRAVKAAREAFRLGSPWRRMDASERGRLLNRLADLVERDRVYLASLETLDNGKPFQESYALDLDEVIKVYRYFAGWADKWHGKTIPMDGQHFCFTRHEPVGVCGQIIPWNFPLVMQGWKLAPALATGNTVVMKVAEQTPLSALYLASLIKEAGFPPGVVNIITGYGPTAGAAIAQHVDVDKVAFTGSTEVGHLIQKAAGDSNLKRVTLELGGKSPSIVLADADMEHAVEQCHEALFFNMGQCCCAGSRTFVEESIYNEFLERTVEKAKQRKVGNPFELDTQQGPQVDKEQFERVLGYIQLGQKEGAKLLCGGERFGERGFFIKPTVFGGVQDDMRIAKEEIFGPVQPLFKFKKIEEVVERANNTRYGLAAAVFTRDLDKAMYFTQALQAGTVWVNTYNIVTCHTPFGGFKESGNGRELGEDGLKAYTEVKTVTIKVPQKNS
Just the number please, in nM, no unit attached.

Short answer for Fc1cc(F)c2c(c1)[C@@H]1C=CC[C@@H]1[C@H](c1cccnc1)N2 : IC50 was 20

// next item, IC50 requested
Recorded IC50 (molecule Fc1cc(F)c2c(c1)[C@H]1C=CC[C@H]1[C@@H](c1cccnc1)N2 ): 5570

----------
Molecular target: ENPP1 (Homo sapiens, UniProt P22413)
Sequence (P22413 1-925): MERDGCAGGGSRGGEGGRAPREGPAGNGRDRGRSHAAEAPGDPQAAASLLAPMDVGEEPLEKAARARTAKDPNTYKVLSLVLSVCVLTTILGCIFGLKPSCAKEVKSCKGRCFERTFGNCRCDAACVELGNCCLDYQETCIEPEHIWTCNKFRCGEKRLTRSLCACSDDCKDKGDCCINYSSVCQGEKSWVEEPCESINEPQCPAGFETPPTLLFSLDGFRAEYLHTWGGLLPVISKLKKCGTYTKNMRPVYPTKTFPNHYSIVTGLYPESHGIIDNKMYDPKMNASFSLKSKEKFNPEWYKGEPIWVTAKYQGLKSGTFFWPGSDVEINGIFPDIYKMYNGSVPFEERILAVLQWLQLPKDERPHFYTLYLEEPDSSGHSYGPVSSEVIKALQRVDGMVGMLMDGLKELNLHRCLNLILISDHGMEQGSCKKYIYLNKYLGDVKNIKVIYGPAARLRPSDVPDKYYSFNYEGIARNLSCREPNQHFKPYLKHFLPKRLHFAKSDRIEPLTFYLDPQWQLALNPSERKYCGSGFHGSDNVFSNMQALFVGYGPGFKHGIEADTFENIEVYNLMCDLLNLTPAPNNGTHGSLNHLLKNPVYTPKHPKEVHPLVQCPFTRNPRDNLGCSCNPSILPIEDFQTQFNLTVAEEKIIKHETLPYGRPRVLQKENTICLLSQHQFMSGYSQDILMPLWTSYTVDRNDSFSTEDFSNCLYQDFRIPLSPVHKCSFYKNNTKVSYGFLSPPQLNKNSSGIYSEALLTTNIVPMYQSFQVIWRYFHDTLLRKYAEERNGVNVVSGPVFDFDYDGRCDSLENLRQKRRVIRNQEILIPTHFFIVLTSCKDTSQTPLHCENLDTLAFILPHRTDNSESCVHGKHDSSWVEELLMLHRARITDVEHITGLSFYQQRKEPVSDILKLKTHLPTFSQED
metric: Kd (µM)
Please state the figure in µM; there is no need to write the unit.

Quick note, Kd for COc1cccc(F)c1-c1nc(C(=O)Nc2ccccc2N2CCC(NS(N)(=O)=O)CC2)cn2ccnc12 [A2] landed at 1.03
